tested on: KM12 colon; assay: NCI-60 one-dose screen, 48 h (100 = growth as untreated, 0 = no growth, -100 = all killed); conditions: 10 µM unless noted
Compounds without any hit were thinned out: in the full panel of roughly 83,000, 20% have a hit. The source made the active and inactive calls. Rule for the calls: active = growth percent below 10; inactive = the rest.
endpoint name: growth

KM12 colon / growth / COc1ccc(/C=C/c2nc3ccccc3c(=O)n2CC(=O)Nc2ccc(OC)cc2)cc1 : value? 79.6% (inactive)

Hello, I am looking for reported growth with KM12 colon for COc1c(F)ccc(C(=O)Nc2ccc3nc(NC(=O)C4CCCN(S(=O)(=O)c5ccc(Br)c(F)c5)C4)sc3c2)c1F (stereo not given) . Could you help? 79.2% (inactive)

Please tell me: growth of CCN1C(=O)N(CC)C2NNC(Sc3c(C(=O)O)c4ccccc4n(C4CCCC4)c3=O)=NC21 (stereo not given) , system KM12 colon? 3.71% (active)

# value lookup — system KM12 colon, readout growth, item O=C(O)c1ccc(-c2ccc(/C=N/NC(=O)c3[nH]c4ccc(Br)cc4c3-c3ccccc3)o2)cc1 11.9% (inactive)

For the record CC1(c2cc3cc(Cl)ccc3oc2=O)NC(=O)c2c(/C=C/C(=O)OC3CC4CCC3(C)C4(C)C)cccc2N1 (stereo not given) , what value of growth is listed for KM12 colon? 64.8% (inactive)

---

Tested on: SN12C renal
Assay: NCI-60 one-dose screen, 48 h (100 = growth as untreated, 0 = no growth, -100 = all killed)
Conditions: 10 µM unless noted
Protocol: Growth inhibition of the SN12C human tumor cell line is measured as a screen for anti-cancer activity. Cells are grown in 96 well plates and exposed to the test compound for 48 hours. Compounds are tested at a single concentration, which is 10^-5 M for most compounds. The reported endpoint is percent growth (GI% or GIPRCNT), where numbers from 0 - 100% represent growth inhibition, and numbers from -100% - 0 represent cell death. For example, a value of 40 represents 60% growth inhibition. […]
Compounds without any hit were thinned out: in the full panel of roughly 83,000, 20% have a hit. Active and inactive are the calls of the source. The calls were made as follows: active = growth percent below 10; inactive = the rest.
endpoint name: growth

// fetch SN12C renal growth for COc1ccc(/C=C/c2nc3ccccc3c(=O)n2CC(=O)Nc2ccc(Cl)cc2)cc1 55.3% (inactive)

Lookup: growth / SN12C renal / Cn1cc(-c2cc(N)n3nc(-c4cn(C)c5ncc(Br)cc45)cc3n2)c2cc(Br)cnc21 12.4% (inactive)

Short answer please: growth, SN12C renal, entry COc1cc(/C=C2\C(=N)N=C(SCc3nc4ccccc4[nH]3)NC2=O)ccc1O 103% (inactive)

// lookup growth | system=SN12C renal | key= N#Cc1c(-c2cccc(Cl)c2Cl)cc(-c2ccc3ccccc3c2)[nH]c1=O 19.1% (inactive)

Fill in the recorded growth for this compound, with SN12C renal as test system: CN(C)c1nc(NCCNS(=O)(=O)c2ccc(C(=O)/C=C/c3ccc(C(F)(F)F)cc3)cc2)nc(Nc2ccc(F)cc2)n1 -99.1% (active)

Give SN12C renal growth for C=C1CCC2C3(C)COC(c4ccco4)OC3CCC2(C)C1CC(Sc1ccccc1)C1=CCOC1=O (stereo unspecified) 21.4% (inactive)

Hello, I am looking for reported growth with SN12C renal for C=CC[N+](C)(C)CCn1c2ccccc2c2nc3cc(C)c(C)cc3nc21 . Could you help? 14.2% (inactive)

# returns recorded growth (system: SN12C renal) for Nc1nnc(-c2c[nH]c3ncc(Br)cc23)c(-c2c[nH]c3ccc(F)cc23)n1 38.8% (inactive)

Please provide the recorded growth for CCOC(=O)C1=C(N)N(c2ccccc2)C2=C(C(=O)CC(C)(C)C2)C1c1ccccc1Cl (stereo unspecified) , tested on SN12C renal. 75% (inactive)

Identify the measured growth of Cc1ccc(NC(=O)CN2CCN(c3ncnc4c3cnn4-c3ccccc3)CC2)cc1 for SN12C renal. 74.6% (inactive)

What reported growth corresponds to COc1ccc2oc3c4[nH]c5ccccc5c4c4c(c3c2c1)C(=O)N(C(=O)OC(C)(C)C)C4=O on SN12C renal? -19.3% (active)

What growth appears in the records for this compound with SN12C renal? COc1ccc(NC(=O)[C@H](C)N)cc1C(=O)Nc1cccc(C2CC(=O)c3c(cc(OC)c(OC)c3OC)O2)c1 (stereo partly specified) 93.8% (inactive)

Give growth (SN12C renal) of the following compound: COc1ccc(NC(=O)c2sc3nc(C(C)C)ccc3c2N)cc1 74.1% (inactive)

Write down the reported growth of N#Cc1c(-c2cccc(O)c2O)cc(-c2ccc3ccccc3c2)[nH]c1=O , test system: SN12C renal. 58.4% (inactive)

Form field - read-out: growth; system: SN12C renal; submitted item: N=C1N=C(SCc2nc3ccccc3[nH]2)NC(=O)/C1=C/c1ccc(Cl)cc1 98.6% (inactive)

API: value(readout= growth, system= SN12C renal, query= O=C(c1ccccc1)c1ccc2nc(-c3cccc(Cl)c3)[nH]c2c1 ) 99.5% (inactive)

growth of CCOC(=O)C1=C(N)N(c2ccccc2)C2=C(C(=O)CC(C)(C)C2)C1c1ccc([N+](=O)[O-])cc1 (stereo unspecified) on SN12C renal? 98.4% (inactive)

Request body: readout growth, system SN12C renal, query COc1cc(CNC(=O)/C=C/c2ccc3c(c2)OCO3)ccc1OCc1cn(-c2cccc(C(F)(F)F)c2)nn1 . Return the value. 21.4% (inactive)

Form field - read-out: growth; system: SN12C renal; submitted item: N/N=C(\N)c1c(N)nc(=S)[nH]c1-c1ccc(Cl)cc1Cl 105% (inactive)

# returns recorded growth (system: SN12C renal) for COc1ccc(C(=O)/C=C/c2ccccc2Cl)cc1S(N)(=O)=O 97.2% (inactive)

# value lookup — system SN12C renal, readout growth, item O=C(O)Cn1c(O)c(/C=C2/C=c3cc4c(cc3=NC2=O)OCCO4)sc1=S 97.5% (inactive)

Checklist item: growth tested on SN12C renal, entry Cn1cc(-c2nnc(N)nc2-c2c[nH]c3ccccc23)c2cccnc21 , value? 50.6% (inactive)

Return growth measured with SN12C renal given this compound: O=C(Cn1c2c(sc1=O)[C@H]1[C@@H](O)[C@@H](O)[C@H](O)[C@@H]1CS2)N1CCOCC1 102% (inactive)

Item: COc1ccc(C(=O)/C=C/c2cccc3ccccc23)cc1S(N)(=O)=O Test system: SN12C renal Read-out: growth Value: ? 6.92% (active)

For SN12C renal, provide growth of CN1CCN(c2ccc(C(=O)/C=C/c3cc(C(F)(F)F)cc(C(F)(F)F)c3)cc2)CC1 please. -79.8% (active)

API: value(readout=growth, system=SN12C renal) for record COc1ccc(C(=O)/C=C/c2cccc(Br)c2)cc1S(N)(=O)=O -79.2% (active)

Lab note: need growth with SN12C renal for entry COc1ccc(-c2c(Nn3cnnn3)no[n+]2[O-])cc1 , please look it up. 33.3% (inactive)

# value lookup — system SN12C renal, readout growth, item COC(=O)C[C@](O)(CCCC(C)(C)O)C(=O)O[C@H]1C(OC)=C[C@@]23CCCN2CCc2cc4c(cc2[C@@H]13)OCO4 -11.3% (active)

Provide the documented growth with SN12C renal as the system for N#Cc1c(NCc2ccccc2)n[nH]c1Nc1ccccc1 50.8% (inactive)

Could you share what growth was measured for O=C(CSc1nc2ccccc2c(=O)[nH]1)NCCN1CCCCC1 , tested on SN12C renal? 96.4% (inactive)

Report growth for CC(C)(C)OC(=O)/C=C/c1cccc2c1C(=O)NC(C)(c1cc3cc(Cl)ccc3oc1=O)N2 (stereo unspecified) tested on SN12C renal. 50% (inactive)
